- Test system: MOLM14;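 also: after 48 h exposure read by CellTiter-Glo luminescence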
- Run Description: cell viability relative to vehicle control; higher = less cytotoxic
- Measurement Context: 10 µM; SRSF2 genotype: SRSF2 P95H/wt
Counter-ions that a name gives are not always drawn.
Metric Name: cell viability (%)
One number for each entry, in %.

I need cell viability for every entry listed below, if you could help.
1. NCc1c[nH]c(=S)n1[C@H]1CCc2c(F)cc(F)cc2C1 [Nepicastat hydrochloride]
2. CN[C@@H](C)C(=O)N[C@H](C(=O)N1CCC[C@H]1C(=O)Nc1snnc1-c1ccccc1)C1CCCCC1
3. CN1C(CCl)Nc2cc(Cl)c(S(N)(=O)=O)cc2S1(=O)=O (centres undefined) [Methyclothiazide]
4. O=C(CCCCc1ccc2c(c1)OCO2)N1CCCCC1 [Tetrahydropiperine]

88.4
89.6
90
89.8
